Tested on: MDA-MB-435
assay_overview: Growth inhibition of human MDA-MB-435 cells at 10 uM incubated for 48 hrs by sulforhodamine B assay relative to control
Format: functional
study_conditions: MDA-MB-435, 48 h, read-out: GI
measurement_name: inhibition of growth at 10 µM
Answer format reminder: number followed by unit.

1. COc1ccc(C(=O)CSc2nccc(Nc3cccc(C(C)=O)c3)n2)cc1	15%
2. CCOC(=O)c1ccc(Nc2ccnc(SCC(=O)c3ccc(C#N)cc3)n2)cc1	32%
3. CCOC(=O)c1ccc(Nc2ccnc(SCC(=O)c3ccc([N+](=O)[O-])cc3)n2)cc1	15%

Below: the item to evaluate.
Enquiry: What measured inhibition of growth at 10 µM is associated with `O=C(CSc1nccc(Nc2ccc(N3CCOCC3)cc2)n1)c1ccc(F)cc1` on MDA-MB-435?
Return: 16%

----------
This section presents compounds with their documented inhibition of growth at 10 µM values.
Tested on: NCI-H23
assay_overview: Growth inhibition of human NCI-H23 cells at 10 uM incubated for 48 hrs by sulforhodamine B assay relative to control
Type: functional
study_conditions: NCI-H23, 48 h, read-out: GI
I'd appreciate it if you wrote the number followed by its unit.

Here's what some known entries look like.
1. CC(=O)c1ccc(Nc2ccnc(SCC(=O)c3ccc(-c4ccccc4)cc3)n2)cc1	10%
2. CCOC(=O)c1ccc(Nc2ccnc(SCC(=O)c3ccc([N+](=O)[O-])cc3)n2)cc1	13%
3. CC(=O)c1cccc(Nc2ccnc(SCC(=O)c3ccc(-c4ccccc4)cc3)n2)c1	18%
4. CC(=O)c1ccc(Nc2ccnc(SCC(=O)c3ccc(Br)cc3)n2)cc1	16%

Now take the following compound into account.
Enquiry: // map `O=C(CSc1nccc(Nc2ccc(N3CCOCC3)cc2)n1)c1ccc(Cl)cc1` to recorded inhibition of growth at 10 µM (system: NCI-H23)
Return: 19%

----------
Test system: NCI-H226
assay_overview: Growth inhibition of human NCI-H226 cells at 10 uM incubated for 48 hrs by sulforhodamine B assay relative to control
Format: functional
study_conditions: NCI-H226, 48 h, read-out: GI
Given measured inhibition of growth at 10 µM, output Criterion met if it is greater than or equal to 20% and Criterion not met if not.

Would you please look over these solved cases?
1) CC(=O)c1cccc(Nc2ccnc(SCC(=O)c3ccc(C(F)(F)F)cc3)n2)c1	Criterion met
2) CCOC(=O)c1ccc(Nc2ccnc(SCC(=O)c3ccc(C#N)cc3)n2)cc1	Criterion met
3) CC(=O)c1ccc(Nc2ccnc(SCC(=O)c3ccc(Cl)cc3)n2)cc1	Criterion met
4) CC(=O)c1ccc(Nc2ccnc(SCC(=O)c3ccc(Br)cc3)n2)cc1	Criterion met
5) COc1ccc(C(=O)CSc2nccc(Nc3cccc(C(C)=O)c3)n2)cc1	Criterion met
6) COc1ccc(C(=O)CSc2nccc(Nc3ccc(N4CCOCC4)cc3)n2)cc1	Criterion not met
7) O=C(O)c1ccc(Nc2ccnc(SCC(=O)c3ccc(C(F)(F)F)cc3)n2)cc1	Criterion not met
8) O=C(CSc1nccc(Nc2ccc(N3CCOCC3)cc2)n1)c1ccc(Cl)cc1	Criterion not met

Now turn to the next molecule.
Enquiry: API: above_or_equal(metric=inhibition of growth at 10 µM, cutoff=20%) for item `CCOC(=O)c1ccc(Nc2ccnc(SCC(=O)c3ccc([N+](=O)[O-])cc3)n2)cc1`
Return: Criterion not met

----------
Let's go through some recorded IC50 values for Fibroblast growth factor receptor 1 (Homo sapiens, UniProt P11362) together.
Write your answer as a measured quantity: the number, then the unit.

1. CCOC(=O)c1ccc(Nc2ccnc(SCC(=O)c3ccc(C#N)cc3)n2)cc1	280 nM

As a next step, examine the compound that follows.
Enquiry: Value lookup for IC50; key = `O=C(CSc1nccc(Nc2ccc(N3CCOCC3)cc2)n1)c1ccc(F)cc1`
Return: 130 nM

----------
As a worked illustration, we turn to pIC50 data collected for Platelet-derived growth factor receptor beta (Homo sapiens, UniProt P09619).
Just the number, please; pIC50 means minus log10 of the concentration in mol/L.

1) O=C(CSc1nccc(Nc2ccc(N3CCOCC3)cc2)n1)c1ccc(F)cc1	6.82

Next compound, pIC50 to be filled in.
Enquiry: Provide value of pIC50 for this record tested with Platelet-derived growth factor receptor beta (Homo sapiens, UniProt P09619): `CCOC(=O)c1ccc(Nc2ccnc(SCC(=O)c3ccc(C#N)cc3)n2)cc1`
Sequence (P09619 whole entry): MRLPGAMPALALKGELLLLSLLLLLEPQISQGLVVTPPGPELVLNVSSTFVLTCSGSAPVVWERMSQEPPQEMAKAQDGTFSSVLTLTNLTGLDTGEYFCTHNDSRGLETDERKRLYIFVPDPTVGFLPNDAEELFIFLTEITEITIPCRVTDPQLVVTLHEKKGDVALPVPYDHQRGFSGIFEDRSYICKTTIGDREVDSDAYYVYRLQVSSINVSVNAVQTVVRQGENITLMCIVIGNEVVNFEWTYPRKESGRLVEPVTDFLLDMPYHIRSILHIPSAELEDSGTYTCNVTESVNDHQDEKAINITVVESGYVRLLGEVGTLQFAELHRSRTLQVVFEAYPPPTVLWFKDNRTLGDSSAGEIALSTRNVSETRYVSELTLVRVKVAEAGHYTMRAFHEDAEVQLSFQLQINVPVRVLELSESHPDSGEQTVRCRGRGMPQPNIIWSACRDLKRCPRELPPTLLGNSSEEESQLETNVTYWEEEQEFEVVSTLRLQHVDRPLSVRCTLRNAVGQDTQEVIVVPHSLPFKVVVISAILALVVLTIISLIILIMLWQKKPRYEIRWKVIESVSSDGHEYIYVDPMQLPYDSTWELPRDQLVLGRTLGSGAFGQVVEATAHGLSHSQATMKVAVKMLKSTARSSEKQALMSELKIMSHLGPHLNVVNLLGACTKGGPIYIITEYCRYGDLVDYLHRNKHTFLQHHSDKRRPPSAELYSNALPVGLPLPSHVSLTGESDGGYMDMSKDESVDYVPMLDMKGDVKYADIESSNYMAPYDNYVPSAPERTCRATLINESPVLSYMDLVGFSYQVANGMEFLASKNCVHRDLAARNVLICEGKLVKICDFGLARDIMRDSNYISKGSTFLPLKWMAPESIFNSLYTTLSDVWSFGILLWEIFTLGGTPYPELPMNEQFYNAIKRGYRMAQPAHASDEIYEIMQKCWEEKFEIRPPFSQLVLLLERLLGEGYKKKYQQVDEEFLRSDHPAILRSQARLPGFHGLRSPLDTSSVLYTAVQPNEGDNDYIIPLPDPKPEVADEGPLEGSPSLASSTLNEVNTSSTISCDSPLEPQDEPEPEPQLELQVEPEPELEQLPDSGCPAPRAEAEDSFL
Return: 6.41

----------
Entries and their inhibition of growth at 10 µM values follow.
Test system: DU-145
assay_overview: Growth inhibition of human DU145 cells at 10 uM incubated for 48 hrs by sulforhodamine B assay relative to control
Format: functional
study_conditions: DU-145, 48 h, read-out: GI
Dear colleague, please return just the value in %, with no unit written.

1) CC(=O)c1ccc(Nc2ccnc(SCC(=O)c3ccc(-c4ccccc4)cc3)n2)cc1	16
2) CCOC(=O)c1ccc(Nc2ccnc(SCC(=O)c3ccc([N+](=O)[O-])cc3)n2)cc1	16
3) CCOC(=O)c1ccc(Nc2ccnc(SCC(=O)c3ccc(C#N)cc3)n2)cc1	21

Enquiry: Item `O=C(CSc1nccc(Nc2ccc(N3CCOCC3)cc2)n1)c1ccc(F)cc1` has what recorded inhibition of growth at 10 µM?
Return: 16

----------
System: SR
assay_overview: Growth inhibition of human SR cells at 10 uM incubated for 48 hrs by sulforhodamine B assay relative to control
Type: functional
study_conditions: read-out: GI
Below is a list of entries, each paired with its recorded inhibition of growth at 10 µM value.
# unit: % | format: bare number

1. CC(=O)c1ccc(Nc2ccnc(SCC(=O)c3ccc(Br)cc3)n2)cc1	25
2. CCOC(=O)c1ccc(Nc2ccnc(SCC(=O)c3ccc(C#N)cc3)n2)cc1	46
3. O=C(CSc1nccc(Nc2ccc(N3CCOCC3)cc2)n1)c1ccc(F)cc1	18
4. COc1ccc(C(=O)CSc2nccc(Nc3cccc(C(C)=O)c3)n2)cc1	35

Enquiry: For `CCOC(=O)c1ccc(Nc2ccnc(SCC(=O)c3ccc([N+](=O)[O-])cc3)n2)cc1` , what is its reported inhibition of growth at 10 µM?
Return: 35

Enquiry: Which inhibition of growth at 10 µM is listed for `CC(=O)c1ccc(Nc2ccnc(SCC(=O)c3ccc(-c4ccccc4)cc3)n2)cc1` ?
Return: 41

----------
tgt: Vascular endothelial growth factor receptor 2 (Homo sapiens)
Sequence (P35968 whole entry): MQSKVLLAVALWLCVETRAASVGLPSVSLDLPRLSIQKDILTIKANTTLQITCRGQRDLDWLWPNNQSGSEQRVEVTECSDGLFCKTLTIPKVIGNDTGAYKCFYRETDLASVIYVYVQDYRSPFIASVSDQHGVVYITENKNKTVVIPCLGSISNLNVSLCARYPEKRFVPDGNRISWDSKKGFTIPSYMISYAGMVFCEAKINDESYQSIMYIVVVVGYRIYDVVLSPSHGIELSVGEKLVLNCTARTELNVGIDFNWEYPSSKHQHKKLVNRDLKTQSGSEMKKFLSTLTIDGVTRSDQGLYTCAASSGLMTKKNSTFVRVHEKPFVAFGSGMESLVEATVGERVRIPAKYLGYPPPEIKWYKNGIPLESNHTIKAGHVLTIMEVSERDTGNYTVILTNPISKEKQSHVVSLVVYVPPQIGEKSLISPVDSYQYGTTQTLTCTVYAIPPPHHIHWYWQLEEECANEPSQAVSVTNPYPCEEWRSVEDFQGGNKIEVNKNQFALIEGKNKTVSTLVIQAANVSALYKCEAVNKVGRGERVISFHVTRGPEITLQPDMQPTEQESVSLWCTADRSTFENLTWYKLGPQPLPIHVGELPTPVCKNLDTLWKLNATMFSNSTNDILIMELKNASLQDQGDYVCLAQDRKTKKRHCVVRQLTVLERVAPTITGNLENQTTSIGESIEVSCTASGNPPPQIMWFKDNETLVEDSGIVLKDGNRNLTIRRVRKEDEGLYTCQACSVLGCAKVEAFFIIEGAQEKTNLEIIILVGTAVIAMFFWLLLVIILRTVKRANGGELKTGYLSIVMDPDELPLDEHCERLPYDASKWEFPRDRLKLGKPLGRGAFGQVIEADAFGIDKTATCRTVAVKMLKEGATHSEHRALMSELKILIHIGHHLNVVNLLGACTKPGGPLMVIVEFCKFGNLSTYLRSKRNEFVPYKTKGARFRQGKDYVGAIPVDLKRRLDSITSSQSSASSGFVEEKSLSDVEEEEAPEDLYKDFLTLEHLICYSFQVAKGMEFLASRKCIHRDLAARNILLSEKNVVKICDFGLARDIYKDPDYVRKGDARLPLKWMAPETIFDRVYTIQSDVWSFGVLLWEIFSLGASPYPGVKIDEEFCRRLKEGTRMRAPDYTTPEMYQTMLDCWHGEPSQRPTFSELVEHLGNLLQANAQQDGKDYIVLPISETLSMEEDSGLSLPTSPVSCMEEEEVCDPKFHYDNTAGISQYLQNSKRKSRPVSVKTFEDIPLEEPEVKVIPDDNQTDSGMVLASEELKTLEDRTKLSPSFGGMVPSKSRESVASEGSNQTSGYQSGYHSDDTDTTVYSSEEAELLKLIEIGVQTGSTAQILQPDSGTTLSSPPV
assay_overview: Inhibition of human N-terminal GST tagged VEGFR-2 expressed in baculovirus infected Sf9 cells using poly (Glu,Tyr) 4:1 as substrate in presence of ATP by Kinase-Glo luminescence assay
Below, each of the compounds is paired with its reported pIC50 value.
// pIC50 is dimensionless: -log10 of concentration (M)

The cases that follow already have their pIC50 on record.
1) COc1ccc(C(=O)CSc2nccc(Nc3ccc(N4CCOCC4)cc3)n2)cc1	6.54
2) CCOC(=O)c1ccc(Nc2ccnc(SCC(=O)c3ccc([N+](=O)[O-])cc3)n2)cc1	6.39
3) N#Cc1ccc(C(=O)CSc2nccc(Nc3ccc(N4CCOCC4)cc3)n2)cc1	5.96
4) CC(=O)c1cccc(Nc2ccnc(SCC(=O)c3ccc(-c4ccccc4)cc3)n2)c1	6.13

Enquiry: Reported pIC50, compound `COc1ccc(C(=O)CSc2nccc(Nc3ccc(C(C)=O)cc3)n2)cc1` : ____
Return: 6.31

Enquiry: Find the recorded pIC50 belonging to `O=C(O)c1ccc(Nc2ccnc(SCC(=O)c3ccc(Cl)cc3)n2)cc1` and report it.
Return: 6.77

Enquiry: # lookup: pIC50 of `CCOC(=O)c1ccc(Nc2ccnc(SCC(=O)c3ccc(C#N)cc3)n2)cc1`
Return: 6.77

Enquiry: Any idea what its pIC50 is? The compound is `CC(=O)c1ccc(Nc2ccnc(SCC(=O)c3ccc(Cl)cc3)n2)cc1`
Return: 6.66

Enquiry: Entry `CC(=O)c1ccc(Nc2ccnc(SCC(=O)c3ccc(Br)cc3)n2)cc1` has what pIC50?
Return: 6.02

----------
tgt: Angiopoietin-1 receptor (Homo sapiens)
Sequence (Q02763 whole entry): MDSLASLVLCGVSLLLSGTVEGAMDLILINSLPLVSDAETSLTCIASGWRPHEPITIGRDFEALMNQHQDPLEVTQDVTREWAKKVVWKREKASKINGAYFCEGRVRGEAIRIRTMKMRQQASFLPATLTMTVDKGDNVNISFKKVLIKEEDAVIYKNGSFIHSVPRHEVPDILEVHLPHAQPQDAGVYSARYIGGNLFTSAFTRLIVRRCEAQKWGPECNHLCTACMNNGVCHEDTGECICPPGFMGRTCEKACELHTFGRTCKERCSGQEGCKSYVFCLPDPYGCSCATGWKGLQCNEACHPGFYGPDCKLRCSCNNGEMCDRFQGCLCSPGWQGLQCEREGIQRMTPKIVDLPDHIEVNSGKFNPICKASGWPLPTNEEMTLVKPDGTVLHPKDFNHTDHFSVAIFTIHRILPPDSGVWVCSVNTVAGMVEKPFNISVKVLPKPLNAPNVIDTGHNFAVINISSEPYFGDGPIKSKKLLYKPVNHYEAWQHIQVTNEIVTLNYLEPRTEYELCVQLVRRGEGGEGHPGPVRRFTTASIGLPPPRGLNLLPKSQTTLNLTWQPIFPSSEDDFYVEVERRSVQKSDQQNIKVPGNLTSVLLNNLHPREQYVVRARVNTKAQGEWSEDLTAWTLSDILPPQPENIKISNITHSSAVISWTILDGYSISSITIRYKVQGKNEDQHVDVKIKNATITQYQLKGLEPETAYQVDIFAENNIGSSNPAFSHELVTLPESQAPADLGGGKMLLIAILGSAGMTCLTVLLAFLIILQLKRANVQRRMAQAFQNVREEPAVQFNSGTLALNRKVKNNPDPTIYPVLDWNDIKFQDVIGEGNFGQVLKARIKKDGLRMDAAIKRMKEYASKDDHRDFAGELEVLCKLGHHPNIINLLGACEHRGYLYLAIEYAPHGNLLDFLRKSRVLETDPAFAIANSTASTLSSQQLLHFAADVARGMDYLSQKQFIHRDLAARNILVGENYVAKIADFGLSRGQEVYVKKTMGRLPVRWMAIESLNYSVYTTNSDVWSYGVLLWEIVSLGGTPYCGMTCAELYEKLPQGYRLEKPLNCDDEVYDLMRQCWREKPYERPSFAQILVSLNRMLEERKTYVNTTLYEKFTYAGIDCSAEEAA
measurement_name: pIC50
Here pIC50 is given on a logarithmic scale as minus log10 of the concentration in mol/L.

Enquiry: Name the reported pIC50 value associated with the compound `CCOC(=O)c1ccc(Nc2ccnc(SCC(=O)c3ccc(C#N)cc3)n2)cc1`
Return: 5.86

----------
Test system: SF-295
assay_overview: Growth inhibition of human SF295 cells at 10 uM incubated for 48 hrs by sulforhodamine B assay relative to control
Type: functional
study_conditions: SF-295, 48 h, read-out: GI
Collected inhibition of growth at 10 µM values appear next to each entry.
Please state the figure in %; there is no need to write the unit.

Field: example entries. Status: answers known.
1) CCOC(=O)c1ccc(Nc2ccnc(SCC(=O)c3ccc(C#N)cc3)n2)cc1	24
2) CCOC(=O)c1ccc(Nc2ccnc(SCC(=O)c3ccc([N+](=O)[O-])cc3)n2)cc1	28
3) CC(=O)c1cccc(Nc2ccnc(SCC(=O)c3ccc(C(F)(F)F)cc3)n2)c1	15

Then this compound:
Enquiry: Please report the recorded inhibition of growth at 10 µM for `CC(=O)c1ccc(Nc2ccnc(SCC(=O)c3ccc(Cl)cc3)n2)cc1` .
Return: 14
